tested on: Plasmodium berghei; assay: Antimalarial activity against Plasmodium berghei KBG 173 infected in ICR/HA Swiss mouse assessed as increase in mean survival time at 320 mg/kg, sc administered 72 hrs post infection; type: functional; settings: route subcutaneous
Values of MST greater than or equal to 5 days map to Satisfied; values below map to Not satisfied.

INPUT: Check the entry `C/C(=N\NC(=S)NCc1ccc(Cl)cc1)c1ccccn1` : does MST equal or exceed 5 days?
OUTPUT: Not satisfied

INPUT: Moving on to `C/C(=N\NC(=S)Nc1ccccc1[N+](=O)[O-])c1ccccn1`
OUTPUT: Satisfied

INPUT: Moving on to `C/C(=N\NC(=S)Nc1ccc(Cl)cc1)c1ccccn1`
OUTPUT: Not satisfied

INPUT: Moving on to `COc1cccc(CNC(=S)N/N=C(\C)c2ccccn2)c1`
OUTPUT: Not satisfied

INPUT: Moving on to `C/C(=N\NC(=S)Nc1ccccc1Cl)c1ccccn1`
OUTPUT: Satisfied

INPUT: Moving on to `COc1ccccc1NC(=S)N/N=C(\C)c1ccccn1`
OUTPUT: Not satisfied

INPUT: Moving on to `CC/C(=N\NC(=S)NC12CC3CC(CC(C3)C1)C2)c1ccccn1`
OUTPUT: Satisfied

INPUT: Moving on to `C/C(=N\NC(=S)NC1CCCCCCC1)c1ccccn1`
OUTPUT: Not satisfied

INPUT: Moving on to `C/C(=N\NC(=S)NCCc1ccccc1)c1ccccn1`
OUTPUT: Satisfied

INPUT: Moving on to `C/C(=N\NC(=S)NC(C)(C)CC(C)(C)C)c1ccccn1`
OUTPUT: Not satisfied

INPUT: Moving on to `C/C(=N\NC(=S)NCc1ccc(C)cc1C)c1ccccn1`
OUTPUT: Satisfied

INPUT: Moving on to `C/C(=N\NC(=S)Nc1ccccn1)c1ccccn1`
OUTPUT: Satisfied

INPUT: Moving on to `C/C(=N\NC(=S)NCc1cccc(Cl)c1)c1ccccn1`
OUTPUT: Not satisfied

INPUT: Moving on to `C/C(=N\NC(=S)Nc1ccc(F)cc1)c1ccccn1`
OUTPUT: Satisfied

INPUT: Moving on to `CCc1ccccc1NC(=S)N/N=C(\C)c1ccccn1`
OUTPUT: Not satisfied

INPUT: Moving on to `C/C(=N\NC(=S)Nc1ccc(C(C)C)cc1)c1ccccn1`
OUTPUT: Satisfied

====

test system: Plasmodium berghei; assay: Antimalarial activity against Plasmodium berghei KBG 173 infected in ICR/HA Swiss mouse assessed as increase in mean survival time at 160 mg/kg, sc administered 72 hrs post infection; format: functional; conditions: route subcutaneous
Flag rule - MST less than 3 days flags satisfied; the remaining entries get not satisfied.

INPUT: Just wondering, is MST of `C/C(=N\NC(=S)Nc1cccc(F)c1)c1ccccn1` below 3 days?
OUTPUT: not satisfied

INPUT: Moving on to `COc1cc(NC(=S)N/N=C(\C)c2ccccn2)c2nccc(C)c2c1`
OUTPUT: satisfied

INPUT: Moving on to `C/C(=N\NC(=S)Nc1ccc([N+](=O)[O-])cc1)c1ccccn1`
OUTPUT: satisfied

INPUT: Moving on to C/C(=N\NC(=S)NC(C)c1ccc(F)cc1)c1ccccn1 (stereo not given)
OUTPUT: not satisfied

INPUT: Moving on to `C/C(=N\NC(=S)NCCO)c1ccccn1`
OUTPUT: satisfied

INPUT: Moving on to `CC/C(=N\NC(=S)Nc1ccccc1)c1ccccn1`
OUTPUT: satisfied

INPUT: Moving on to `CCOC(=O)CNC(=S)N/N=C(\CC)c1ccccn1`
OUTPUT: satisfied

INPUT: Moving on to `C/C(=N\NC(=S)Nc1cccnc1)c1ccccn1`
OUTPUT: satisfied

INPUT: Moving on to `COc1cccc(NC(=S)N/N=C(\C)c2ccccn2)c1`
OUTPUT: not satisfied

INPUT: Moving on to `C/C(=N\NC(=S)Nc1c2ccccc2nc2ccccc12)c1ccccn1`
OUTPUT: satisfied

INPUT: Moving on to `C/C(=N\NC(=S)NCc1cccc(F)c1)c1ccccn1`
OUTPUT: not satisfied

INPUT: Moving on to `C/C(=N\NC(=S)Nc1ccccn1)c1ccccn1`
OUTPUT: not satisfied

INPUT: Moving on to `C/C(=N\NC(=S)Nc1ccc(C(C)C)cc1)c1ccccn1`
OUTPUT: satisfied

INPUT: Moving on to `COc1ccccc1NC(=S)N/N=C(\C)c1ccccn1`
OUTPUT: satisfied

INPUT: Moving on to `C/C(=N\NC(=S)NCc1ccncc1)c1ccccn1`
OUTPUT: satisfied

INPUT: Moving on to `CCCCc1ccc(NC(=S)N/N=C(\C)c2ccccn2)cc1`
OUTPUT: not satisfied

INPUT: Moving on to `C/C(=N\NC(=S)Nc1cccc(C)c1)c1ccccn1`
OUTPUT: not satisfied

INPUT: Moving on to `CC/C(=N\NC(=S)NC12CC3CC(CC(C3)C1)C2)c1ccccn1`
OUTPUT: not satisfied

INPUT: Moving on to `C/C(=N\NC(=S)Nc1cccc(Cl)c1Cl)c1ccccn1`
OUTPUT: satisfied

INPUT: Moving on to `C/C(=N\NC(=S)NCCc1ccccc1)c1ccccn1`
OUTPUT: satisfied

INPUT: Moving on to `C/C(=N\NC(=S)Nc1cc(Cl)ccc1Cl)c1ccccn1`
OUTPUT: satisfied

INPUT: Moving on to `C/C(=N\NC(=S)NCc1ccc(Cl)cc1Cl)c1ccccn1`
OUTPUT: satisfied

INPUT: Moving on to `COc1ccc(NC(=S)N/N=C(\C)c2ccccn2)cc1`
OUTPUT: not satisfied

INPUT: Moving on to `C/C(=N\NC(=S)NCc1ccc(C)c(C)c1)c1ccccn1`
OUTPUT: satisfied

INPUT: Moving on to `C/C(=N\NC(=S)Nc1cc(Cl)cc(Cl)c1)c1ccccn1`
OUTPUT: satisfied
